Where do these numbers come from? They come from the kinase profiling compilation of Christmann-Franck et al. (2016).

Target: UniProtKB P54760
Sequence (P54760 whole entry, looked up): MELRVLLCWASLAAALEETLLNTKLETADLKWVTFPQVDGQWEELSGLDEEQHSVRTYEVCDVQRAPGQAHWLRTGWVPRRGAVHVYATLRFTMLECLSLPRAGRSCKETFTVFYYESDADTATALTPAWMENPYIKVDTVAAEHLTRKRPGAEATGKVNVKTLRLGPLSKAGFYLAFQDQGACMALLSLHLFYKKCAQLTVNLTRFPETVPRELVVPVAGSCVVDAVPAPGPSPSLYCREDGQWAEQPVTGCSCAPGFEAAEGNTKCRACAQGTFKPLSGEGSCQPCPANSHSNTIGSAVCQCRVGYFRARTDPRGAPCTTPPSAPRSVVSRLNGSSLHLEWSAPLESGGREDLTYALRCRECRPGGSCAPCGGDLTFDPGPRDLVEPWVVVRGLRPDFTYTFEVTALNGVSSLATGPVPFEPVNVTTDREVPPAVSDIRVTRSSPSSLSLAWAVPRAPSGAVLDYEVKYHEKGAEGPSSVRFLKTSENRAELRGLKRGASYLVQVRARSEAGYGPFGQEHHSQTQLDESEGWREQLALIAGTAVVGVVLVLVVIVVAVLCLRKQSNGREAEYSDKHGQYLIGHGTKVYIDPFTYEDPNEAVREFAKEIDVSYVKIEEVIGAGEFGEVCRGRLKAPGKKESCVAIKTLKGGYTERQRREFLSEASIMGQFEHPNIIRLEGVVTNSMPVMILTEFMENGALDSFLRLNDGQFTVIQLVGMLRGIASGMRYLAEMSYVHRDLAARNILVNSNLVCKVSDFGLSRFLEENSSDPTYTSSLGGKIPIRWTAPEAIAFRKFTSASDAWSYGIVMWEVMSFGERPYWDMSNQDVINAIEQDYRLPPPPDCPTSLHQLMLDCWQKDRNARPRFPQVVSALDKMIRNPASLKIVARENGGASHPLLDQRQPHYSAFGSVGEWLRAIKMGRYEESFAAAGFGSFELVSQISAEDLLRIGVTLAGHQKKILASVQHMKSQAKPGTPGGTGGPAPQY
Assay: KINOMEscan competition binding
Conditions: compound 10.0 µM

- smi: "CC(=O)c1c(-c2ccncc2)[nH]c(-c2ccncc2)c1C"
  kinase still bound, per cent of control: "no effect (inactive)"
- smi: "Cc1ccc(O)cc1Nc1ccnc(Nc2cccc(C(N)=O)c2)n1"
  kinase still bound, per cent of control: "0%"
- smi: "CN(C)c1ccc(-c2cc3ncccc3c(NCCCCN)n2)cc1"
  kinase still bound, per cent of control: "no effect (inactive)"
- smi: "N#Cc1ccc(-c2cnc3[nH]cc(NC(=O)c4cccnc4)c3c2)cc1"
  kinase still bound, per cent of control: "no effect (inactive)"
- smi: "NC(=O)c1ccc(Nc2cc(-c3ccc(F)cc3)[nH]n2)cc1"
  kinase still bound, per cent of control: "no effect (inactive)"
- smi: "CCS(=O)(=O)Nc1ccc2c(c1)[C@H](/C(=N/c1ccc(CN3CCCCC3)cc1)c1ccccc1)C(=O)N2"
  kinase still bound, per cent of control: "0.7%"
- smi: "Nc1ncnc2c1c(-c1cccc(O)c1)cn2C1CCNCC1"
  kinase still bound, per cent of control: "no effect (inactive)"
- smi: "O=C1Nc2ccccc2/C1=C/c1ccc[nH]1"
  kinase still bound, per cent of control: "no effect (inactive)"
- smi: "O=C(Nc1n[nH]c2nc(-c3cccc(O)c3)ccc12)C1CC1"
  kinase still bound, per cent of control: "no effect (inactive)"
- smi: "NC(=O)c1ccc(-c2cc(C(N)=O)c(N)c(-c3ccc(S(N)(=O)=O)cc3)c2)cc1"
  kinase still bound, per cent of control: "no effect (inactive)"
- smi: "Cc1ccc(NC(=O)c2cccc(N3CCCCC3)c2)cc1-c1ccc(C(=O)NCC2CC2)cc1"
  kinase still bound, per cent of control: "no effect (inactive)"
- smi: "c1ccc(-c2n[nH]cc2-c2ccnc3ccccc23)nc1"
  kinase still bound, per cent of control: "no effect (inactive)"

----------
Target: UniProtKB Q8TDX7
Sequence (Q8TDX7 whole entry, looked up): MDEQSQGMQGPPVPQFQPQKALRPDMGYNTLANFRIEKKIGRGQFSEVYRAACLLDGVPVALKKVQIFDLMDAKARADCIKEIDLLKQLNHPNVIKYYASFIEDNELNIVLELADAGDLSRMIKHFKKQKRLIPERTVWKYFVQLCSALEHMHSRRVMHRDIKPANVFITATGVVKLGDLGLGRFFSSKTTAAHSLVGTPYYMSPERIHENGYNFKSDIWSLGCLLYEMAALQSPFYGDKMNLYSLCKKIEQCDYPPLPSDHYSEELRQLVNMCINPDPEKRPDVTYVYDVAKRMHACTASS
Assay: KINOMEscan competition binding
Settings: compound 10.0 µM
endpoint: kinase still bound, per cent of control

- smi: "Nc1ncnc2c1c(-c1cccc(O)c1)cn2C1CCNCC1"
  endpoint: "kinase still bound, per cent of control"
  result.value: "no effect (inactive)"
- smi: "CN(C)c1ccc(-c2cc3ncccc3c(NCCCCN)n2)cc1"
  endpoint: "kinase still bound, per cent of control"
  result.value: "no effect (inactive)"
- smi: "Cc1ccc(C(=O)Nc2cccc(C(C)(C)C)c2)cc1-c1ccc(C(=O)NCC2CC2)cc1"
  endpoint: "kinase still bound, per cent of control"
  result.value: "no effect (inactive)"

----------
Target: PAK4 (human)
Assay: KINOMEscan competition binding
Conditions: compound 10.0 µM

- smi: "NC(=O)c1ccc(Nc2cc(-c3ccc(F)cc3)[nH]n2)cc1"
  assay.target: "PAK4 (human)"
  kinase still bound, per cent of control: "no effect (inactive)"
- smi: "O=C(Nc1n[nH]c2nc(-c3cccc(O)c3)ccc12)C1CC1"
  assay.target: "PAK4 (human)"
  kinase still bound, per cent of control: "no effect (inactive)"
- smi: "Cc1cc(Nc2cc(N3CCN(C)CC3)nc(Sc3ccc(NC(=O)C4CC4)cc3)n2)[nH]n1"
  assay.target: "PAK4 (human)"
  kinase still bound, per cent of control: "no effect (inactive)"

----------
Target: RET (human) (UniProt P07949)
Sequence (P07949 whole entry, looked up): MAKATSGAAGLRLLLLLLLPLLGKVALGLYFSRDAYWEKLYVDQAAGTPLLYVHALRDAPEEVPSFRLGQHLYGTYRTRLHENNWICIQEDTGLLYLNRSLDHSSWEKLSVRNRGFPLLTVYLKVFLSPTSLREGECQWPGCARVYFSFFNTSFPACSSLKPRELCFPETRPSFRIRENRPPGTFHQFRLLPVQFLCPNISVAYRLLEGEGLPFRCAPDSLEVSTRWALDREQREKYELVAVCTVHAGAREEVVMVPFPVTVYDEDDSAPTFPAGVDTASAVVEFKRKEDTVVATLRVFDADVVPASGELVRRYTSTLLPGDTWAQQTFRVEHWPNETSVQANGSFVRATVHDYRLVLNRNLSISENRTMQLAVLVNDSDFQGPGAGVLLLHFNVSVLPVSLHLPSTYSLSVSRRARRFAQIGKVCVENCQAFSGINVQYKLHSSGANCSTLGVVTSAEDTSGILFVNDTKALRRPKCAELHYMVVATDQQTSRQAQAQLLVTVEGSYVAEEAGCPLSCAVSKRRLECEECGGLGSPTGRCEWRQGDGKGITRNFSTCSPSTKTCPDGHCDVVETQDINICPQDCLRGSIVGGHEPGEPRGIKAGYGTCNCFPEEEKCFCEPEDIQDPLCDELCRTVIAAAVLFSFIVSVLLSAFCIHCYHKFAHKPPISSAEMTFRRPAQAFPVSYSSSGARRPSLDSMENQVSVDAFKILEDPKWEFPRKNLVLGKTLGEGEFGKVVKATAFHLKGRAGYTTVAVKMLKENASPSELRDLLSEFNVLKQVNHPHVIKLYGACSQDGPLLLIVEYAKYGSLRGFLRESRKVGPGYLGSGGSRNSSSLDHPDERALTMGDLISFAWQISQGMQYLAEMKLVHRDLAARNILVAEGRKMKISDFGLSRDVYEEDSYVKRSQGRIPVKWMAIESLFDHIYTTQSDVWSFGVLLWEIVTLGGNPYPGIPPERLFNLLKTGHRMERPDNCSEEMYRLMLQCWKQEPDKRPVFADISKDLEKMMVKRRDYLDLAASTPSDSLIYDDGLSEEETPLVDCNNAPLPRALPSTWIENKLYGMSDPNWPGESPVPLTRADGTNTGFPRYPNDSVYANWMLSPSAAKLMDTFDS
Experiment: KINOMEscan competition binding
Conditions: compound 10.0 µM
endpoint: kinase still bound, per cent of control

- smi: "Cc1ccc(NC(=O)c2cccc(N3CCCCC3)c2)cc1-c1ccc(C(=O)NCC2CC2)cc1"
  endpoint: "kinase still bound, per cent of control"
  result.value: "no effect (inactive)"
- smi: "CCS(=O)(=O)Nc1ccc2c(c1)[C@H](/C(=N/c1ccc(CN3CCCCC3)cc1)c1ccccc1)C(=O)N2"
  endpoint: "kinase still bound, per cent of control"
  result.value: "0%"
- smi: "c1ccc(-c2n[nH]cc2-c2ccnc3ccccc23)nc1"
  endpoint: "kinase still bound, per cent of control"
  result.value: "no effect (inactive)"
- smi: "NC(=O)c1ccc(-c2cc(C(N)=O)c(N)c(-c3ccc(S(N)(=O)=O)cc3)c2)cc1"
  endpoint: "kinase still bound, per cent of control"
  result.value: "no effect (inactive)"
